Listing of recorded protein stability index by entry.
B1: FAM189A2 (parent)
chain: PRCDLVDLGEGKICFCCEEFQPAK

# Variants of: B1
# PROCEDURE_DETAILS: protein stability index of a GFP-peptide fusion (GPS, HEK-293T) (PSI 1-6); higher = more stable;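 note: lentivirally expressed fusions sorted by FACS into six bins by GFP to DsRed ratio, PSI derived from sequencing read proportions per bin multiplied by bin number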
# STUDY_CONDITIONS: c terminus: a fixed tail appended
Answer with a bare number; do not write a unit.

What does the record list as protein stability index for PRCDLVDLGEGKWCFCCEEFQPAK [I13W] ?
2.11

Recorded protein stability index for PRCDLVDLGEGKICFMCEEFQPAK [C16M] , please?
3.07

Endpoint output: protein stability index of PRCDLVDLGEGKICFICEEFQPAK [C16I] . Value?
2.09
